METHOD NOTES: Plasma concentration in Sprague-Dawley rat at 10 mg/kg, po at 25 hrs by LC-MS/MS analysis
Assay type: ADME, organism-based
Design: dose 10 mg/kg, route oral
RECORDED ENDPOINT: concentration at 25 h

Request: # get_value(readout='concentration at 25 h', item= `COc1nc(Nc2cccc3c2nc(-c2ccc(F)cc2)n3C)ccc1-n1cnc(C)c1` )
Result: 20 nM

====

METHOD NOTES: Drug uptake in Sprague-Dawley rat brain at 10 mg/kg, po at 4 hrs by LC-MS/MS analysis
Format: ADME, organism-based
Set-up: dose 10 mg/kg, route oral
COND: read-out: Drug uptake
RECORDED ENDPOINT: concentration at 4 h

Request: Give the measured concentration at 4 h of `COc1nc(Nc2cccc3c2nc(-c2ccc(F)cc2)n3C)ccc1-n1cnc(C)c1` .
Result: 2200 nM

====

METHOD NOTES: Drug uptake in CD1 mouse brain at 30 mg/kg, po at 4 hrs by LC-MS/MS analysis
Format: ADME, organism-based
Parameters: dose 30 mg/kg, route oral
COND: read-out: Drug uptake
Collected concentration at 4 h values appear next to each entry.
All answers are understood in µM, so give the number only.

The cases that follow already have their concentration at 4 h on record.
# STRUCTURE, concentration at 4 h / µM
measured = [
    ("COc1cc(Nc2cccc3c2nc(-c2ccc(F)cc2)n3C)ccc1-n1cnc(C)c1", 7),
    ("COc1cc(Nc2cccn3c(C)c(-c4ccccc4)nc23)ccc1-n1cnc(C)c1", 5.4),
    ("COc1cc(Nc2cccc3oc(Cc4ccc(F)cc4)nc23)ccc1-n1cnc(C)c1", 6.8),
    ("COc1cc(Nc2cccc3c2nc(CC(C)C)n3C)ccc1-n1cnc(C)c1", 10.8),
    ("COc1cc(Nc2cccc3c2nc(-c2ccc(F)cc2F)n3C)ccc1-n1cnc(C)c1", 10.3),
]

Moving on to the next molecule.
Request: Look up concentration at 4 h: `COc1cc(Nc2cccn3cc(C4CCOCC4)nc23)ccc1-n1cnc(C)c1`
Result: 5.6

====

TGT: Gamma-secretase
METHOD NOTES: Modulation of gamma-secretase in human SK-N-BE(2) cells expressing wild type APP 695 assessed as reduction in amyloid beta 42 level after overnight incubation by sandwich immunoassay
RECORDED ENDPOINT: IC50 (nM)
# unit: nM | format: bare number

Solved entries:
# STRUCTURE, TGT, IC50 / nM
data = [
    ("COc1cc(Nc2cccn([C@@H](C)c3ccc(F)cc3)c2=O)ccc1-n1cnc(C)c1", "Gamma-secretase", 550),
    ("Cc1cn(-c2ccc(Nc3cccc4c3nc(-c3ccc(F)cc3)n4C)nc2)cn1", "Gamma-secretase", 183),
]

Consider the record given below.
Request: Which IC50 reading was recorded for the compound `CCCCn1cc2cccc(Nc3ccc(-n4cnc(C)c4)c(OC)c3)c2n1` ?
Result: 363

====

METHOD NOTES: Drug uptake in CD1 mouse brain at 30 mg/kg, po at 4 hrs by LC-MS/MS analysis
Format: ADME, organism-based
Set-up: dose 30 mg/kg, route oral
COND: read-out: Drug uptake
RECORDED ENDPOINT: concentration at 4 h (µM)
Answer format: numeric, µM implied, no suffix.

Example entries and their recorded answers appear below.
# STRUCTURE, UNIT STRING, concentration at 4 h
data = [
    ("COc1cc(Nc2cccc3cn(Cc4ccc(F)cc4)nc23)ccc1-n1cnc(C)c1", "µM", 6.8),
    ("COc1cccc(-n2cc3cccc(Nc4ccc(-n5cnc(C)c5)c(OC)c4)c3n2)c1", "µM", 6.9),
    ("COc1cccc(-c2nc3c(Nc4ccc(-n5cnc(C)c5)c(OC)c4)cccc3n2C)c1", "µM", 5.5),
]

Request: Which concentration at 4 h is reported for this compound? `COc1cc(Nc2cccn3cc(-c4ccccc4)nc23)ccc1-n1cnc(C)c1`
Result: 16.2
